Reference source for all entries: patent US11667629B2

# Run description: Liver microsomal stability test, rat
# Type: in vitro ADME
# Condition info: liver microsomes; rat liver microsome, 1 μM compound, 0.5 mg/mL, NADPH
# Protocol: The test compound (50 μL) was mixed with the liver microsome (100 μL) of each species, after pre-incubation at 37° C. for 5 minutes, NADPH (50 μL) was added, and the incubation was performed for 0, 30, and 60 minutes. The incubation concentrations of the test compound, NADPH, and liver microsomal enzyme were 1 μM, 1 mM, and 0.5 mg/mL, respectively. […] After the vortex and centrifugation process, the supernatant was obtained and detected. […]
Recorded metric: CLint scaled at 1 μM
# output: numeric value plus its unit

The measured CLint scaled at 1 μM associated with O=C(O)c1ccc(-c2csc(N3[C@@H]4CC[C@H]3C[C@@H](OCc3c(-c5ccccc5OC(F)(F)F)noc3C3CC3)C4)n2)cc1C(F)(F)F reads 0.96 mL/min/kg
